Origin of values: patent US8193191B2

- Assay system: rat GPR14 (U-II receptor) (Rattus norvegicus, UniProt P49684)
- Construct: expressed in transfected cells
- Sequence (P49684 whole entry): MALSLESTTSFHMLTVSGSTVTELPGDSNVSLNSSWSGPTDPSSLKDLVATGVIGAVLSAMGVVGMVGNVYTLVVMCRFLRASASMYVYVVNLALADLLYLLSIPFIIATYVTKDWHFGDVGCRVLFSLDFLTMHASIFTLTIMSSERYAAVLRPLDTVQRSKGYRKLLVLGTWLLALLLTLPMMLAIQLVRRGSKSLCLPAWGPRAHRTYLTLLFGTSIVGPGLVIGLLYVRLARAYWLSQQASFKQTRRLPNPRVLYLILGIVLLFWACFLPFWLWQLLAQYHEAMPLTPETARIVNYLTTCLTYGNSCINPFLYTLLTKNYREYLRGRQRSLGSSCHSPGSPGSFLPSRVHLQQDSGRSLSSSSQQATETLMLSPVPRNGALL
- Test protocol: Rat UII Calcium Mobilization FLIPR Assay
- Type: cell-based
- Cond: average value for the compound tested; read-out: Rat UII FLIPR Average IC50
IC50 values, listed per item
The answer is to be given in nM; state only the numeric part.

1. COc1ccc(C(CCCNS(=O)(=O)N(C)C)N2C(=O)c3cccc(N4CCN([C@H](C)c5ccccc5)CC4)c3C2=O)cc1OC (stereo partly shown) = 28

// recorded IC50 for COc1ccc([C@@H](CCCNS(=O)(=O)c2cnn(C)c2)N2C(=O)c3cccc(N4CCN([C@H](C)c5ccccc5)CC4)c3C2=O)cc1OC : 6.2

// recorded IC50 for COc1ccc([C@@H](CCCNC(=O)C2CCCC2)N2C(=O)c3cccc(N4CCN([C@H](C)c5ccccc5)CC4)c3C2=O)cc1OC : 24

// recorded IC50 for COc1ccc(C(CCNC(=O)Cc2ccncc2)N2C(=O)c3cccc(N4CCN([C@H](C)c5ccccc5)CC4)c3C2=O)cc1OC (stereo partly shown) : 35

// recorded IC50 for CCOCC(=O)NCCC[C@H](c1ccc(OC)c(OC)c1)N1C(=O)c2cccc(N3CCN([C@H](C)c4ccccc4)CC3)c2C1=O : 9.6

// recorded IC50 for COc1ccc(CN2C(=O)c3ccc(N4CCN([C@H](C)c5ccccc5)CC4)cc3C2=O)cc1OC : 10000

// recorded IC50 for COc1ccc(C(CCCNS(=O)(=O)c2ccc(-c3ccon3)s2)N2C(=O)c3cccc(N4CCN([C@H](C)c5ccccc5)CC4)c3C2=O)cc1OC (stereo partly shown) : 89

// recorded IC50 for COc1ccc(CN2C(=O)c3cccc(N4CCN(Cc5cccs5)CC4)c3C2=O)cc1OC : 1400

// recorded IC50 for COc1ccc([C@@H](CCCNC(=O)c2ccc(S(C)(=O)=O)s2)N2C(=O)c3cccc(N4CCN([C@H](C)c5ccccc5)CC4)c3C2=O)cc1OC : 32

// recorded IC50 for CCN1CCN(c2cccc3c2C(=O)N([C@H](CCCO)c2ccc(OC)c(OC)c2)C3=O)CC1 : 690

// recorded IC50 for COc1ccc([C@@H](CCCNC(=O)c2ccnnc2)N2C(=O)c3cccc(N4CCN([C@H](C)c5ccccc5)CC4)c3C2=O)cc1OC : 12

// recorded IC50 for COc1ccc([C@@H](CCNC(=O)OCc2ccccc2)N2C(=O)c3cccc(N4CCN([C@H](C)c5ccccc5)CC4)c3C2=O)cc1OC : 64

// recorded IC50 for COc1ccc([C@@H](CCCNS(=O)(=O)c2cccs2)N2C(=O)c3cccc(N4CCN(Cc5ccsc5)CC4)c3C2=O)cc1OC : 11

// recorded IC50 for COc1ccc([C@@H](CCCNS(=O)(=O)c2cn(C)nc2C(F)(F)F)N2C(=O)c3cccc(N4CCN([C@H](C)c5ccccc5)CC4)c3C2=O)cc1OC : 56
